For each of the compounds below, state its pIC50.
- SYSTEM_NAME: ATR kinase (Homo sapiens, UniProt Q13535)
- Construct: purchased Eurofins 14-953
- Sequence (Q13535 whole entry): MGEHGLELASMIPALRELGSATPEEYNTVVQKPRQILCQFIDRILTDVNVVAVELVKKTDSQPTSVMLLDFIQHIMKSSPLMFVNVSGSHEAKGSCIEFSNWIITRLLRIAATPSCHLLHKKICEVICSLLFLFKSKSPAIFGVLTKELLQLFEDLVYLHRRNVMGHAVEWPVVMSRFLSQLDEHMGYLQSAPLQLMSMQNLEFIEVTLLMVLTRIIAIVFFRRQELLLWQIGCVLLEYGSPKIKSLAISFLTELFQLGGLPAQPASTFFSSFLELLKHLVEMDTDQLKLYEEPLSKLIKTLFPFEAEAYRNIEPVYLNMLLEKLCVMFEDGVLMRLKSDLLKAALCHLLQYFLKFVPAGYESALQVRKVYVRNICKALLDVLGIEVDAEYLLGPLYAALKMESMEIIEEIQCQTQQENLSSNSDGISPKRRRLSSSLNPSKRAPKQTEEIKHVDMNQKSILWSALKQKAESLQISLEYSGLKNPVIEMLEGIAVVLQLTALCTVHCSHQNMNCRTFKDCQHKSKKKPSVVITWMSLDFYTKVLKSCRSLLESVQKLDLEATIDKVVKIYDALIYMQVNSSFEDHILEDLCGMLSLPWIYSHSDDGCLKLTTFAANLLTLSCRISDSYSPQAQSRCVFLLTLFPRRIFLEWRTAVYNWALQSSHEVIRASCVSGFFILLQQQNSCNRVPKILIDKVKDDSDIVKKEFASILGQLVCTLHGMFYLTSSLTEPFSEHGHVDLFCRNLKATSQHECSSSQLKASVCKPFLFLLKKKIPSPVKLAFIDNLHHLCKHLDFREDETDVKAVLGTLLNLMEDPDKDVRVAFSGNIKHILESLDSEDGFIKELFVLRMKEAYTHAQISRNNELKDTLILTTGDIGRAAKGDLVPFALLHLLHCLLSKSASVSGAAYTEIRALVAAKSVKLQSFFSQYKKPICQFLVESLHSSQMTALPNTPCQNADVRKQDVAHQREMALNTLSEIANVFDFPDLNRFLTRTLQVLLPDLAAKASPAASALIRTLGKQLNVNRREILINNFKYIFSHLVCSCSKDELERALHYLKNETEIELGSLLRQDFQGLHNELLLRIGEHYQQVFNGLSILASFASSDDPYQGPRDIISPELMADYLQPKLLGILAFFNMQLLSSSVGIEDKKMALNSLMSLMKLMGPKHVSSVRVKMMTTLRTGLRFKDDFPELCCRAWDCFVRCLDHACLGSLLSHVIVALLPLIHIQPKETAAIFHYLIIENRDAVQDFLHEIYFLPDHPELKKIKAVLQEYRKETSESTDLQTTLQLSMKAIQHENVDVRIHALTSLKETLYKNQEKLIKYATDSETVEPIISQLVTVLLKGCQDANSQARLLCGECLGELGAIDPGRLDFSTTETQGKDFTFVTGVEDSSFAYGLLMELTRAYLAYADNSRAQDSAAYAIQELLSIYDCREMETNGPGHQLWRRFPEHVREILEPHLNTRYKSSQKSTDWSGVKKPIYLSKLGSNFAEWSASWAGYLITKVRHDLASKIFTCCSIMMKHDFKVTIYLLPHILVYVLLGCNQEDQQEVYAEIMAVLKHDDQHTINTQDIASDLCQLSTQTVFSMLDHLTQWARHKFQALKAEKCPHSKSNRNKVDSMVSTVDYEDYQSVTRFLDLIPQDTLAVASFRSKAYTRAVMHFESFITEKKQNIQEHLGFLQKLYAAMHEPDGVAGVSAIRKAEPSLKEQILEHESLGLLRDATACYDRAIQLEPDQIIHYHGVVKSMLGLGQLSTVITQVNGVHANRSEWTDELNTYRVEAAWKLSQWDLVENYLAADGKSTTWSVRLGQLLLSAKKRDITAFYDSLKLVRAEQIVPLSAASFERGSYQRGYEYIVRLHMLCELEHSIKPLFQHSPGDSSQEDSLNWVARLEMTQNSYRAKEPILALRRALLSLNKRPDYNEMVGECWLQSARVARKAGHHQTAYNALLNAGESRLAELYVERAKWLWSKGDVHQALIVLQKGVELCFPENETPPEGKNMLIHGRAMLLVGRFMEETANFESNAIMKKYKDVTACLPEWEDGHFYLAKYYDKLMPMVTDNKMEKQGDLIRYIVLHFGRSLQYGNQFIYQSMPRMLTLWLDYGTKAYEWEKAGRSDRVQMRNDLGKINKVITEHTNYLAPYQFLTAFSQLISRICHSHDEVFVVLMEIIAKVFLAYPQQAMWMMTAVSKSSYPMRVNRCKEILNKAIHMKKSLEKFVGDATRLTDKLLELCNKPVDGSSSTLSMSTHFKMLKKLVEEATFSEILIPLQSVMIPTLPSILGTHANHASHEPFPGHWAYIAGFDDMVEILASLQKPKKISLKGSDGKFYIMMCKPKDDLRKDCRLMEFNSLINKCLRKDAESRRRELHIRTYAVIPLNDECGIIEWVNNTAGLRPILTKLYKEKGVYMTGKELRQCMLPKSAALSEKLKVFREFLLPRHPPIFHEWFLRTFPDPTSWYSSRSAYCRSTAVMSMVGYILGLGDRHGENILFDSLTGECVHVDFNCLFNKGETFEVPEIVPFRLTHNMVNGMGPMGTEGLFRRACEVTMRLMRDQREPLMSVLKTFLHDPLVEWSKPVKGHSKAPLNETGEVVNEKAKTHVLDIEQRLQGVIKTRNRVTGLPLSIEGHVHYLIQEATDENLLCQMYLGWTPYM
- Sequence (Q8WXE1 whole entry partner): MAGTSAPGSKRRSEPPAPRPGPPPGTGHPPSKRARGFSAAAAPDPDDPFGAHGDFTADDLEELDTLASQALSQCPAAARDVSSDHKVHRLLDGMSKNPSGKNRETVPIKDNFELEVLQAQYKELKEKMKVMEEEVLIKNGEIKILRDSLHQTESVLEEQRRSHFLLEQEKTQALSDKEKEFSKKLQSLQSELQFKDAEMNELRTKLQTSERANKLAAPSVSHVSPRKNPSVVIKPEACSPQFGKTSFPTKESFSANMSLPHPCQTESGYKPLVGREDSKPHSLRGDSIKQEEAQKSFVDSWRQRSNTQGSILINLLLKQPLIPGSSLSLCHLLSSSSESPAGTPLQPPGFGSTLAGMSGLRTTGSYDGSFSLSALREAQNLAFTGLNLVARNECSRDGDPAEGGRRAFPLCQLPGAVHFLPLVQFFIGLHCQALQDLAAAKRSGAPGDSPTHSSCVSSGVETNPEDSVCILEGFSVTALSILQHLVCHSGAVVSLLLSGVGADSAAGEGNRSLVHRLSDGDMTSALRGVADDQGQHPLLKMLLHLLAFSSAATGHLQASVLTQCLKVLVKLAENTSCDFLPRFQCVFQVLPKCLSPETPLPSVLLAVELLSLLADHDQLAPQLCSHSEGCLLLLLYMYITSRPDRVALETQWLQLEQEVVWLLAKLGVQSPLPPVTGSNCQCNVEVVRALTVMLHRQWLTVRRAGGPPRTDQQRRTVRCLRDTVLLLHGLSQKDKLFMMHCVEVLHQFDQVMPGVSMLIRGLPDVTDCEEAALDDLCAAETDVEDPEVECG
- PROTOCOL_TEXT: Inhibitory effect on ATR kinase activity (Caliper mobility shift, FAM-labeled RAD17 peptide substrate)
- Type: biochemical
- EXPERIMENTAL_CONTEXT: 1 nM ATR kinase (Eurofins), 28°C for 3 hours, maximum concentration 1 µM, 10 concentrations, read-out: ATR kinase IC50
pIC50: −log10 of the molar value.

Consider the following items and state reported pIC50 for each.
1. CC(=O)N1CCc2nn(-c3cc[nH]n3)c3nc(N4CCOC[C@H]4C)cc(c23)C1 [Compound 5]
2. CN=S(C)(=O)N1CCc2nn(-c3cc[nH]n3)c3nc(N4CCOC[C@H]4C)cc(c23)C1C (single isomer, unassigned) [Compound 152A]
3. CC(C)S(=O)(=O)N1CCc2nn(-c3cc[nH]n3)c3nc(N4CCOC[C@H]4C)cc(c23)C1 [Compound 24]

Outgoing:
1. 7.00 to 8.00
2. > 8.00
3. > 8.00

Consider the following items and state reported pIC50 for each.
1. C[C@@H]1COCCN1c1cc2c3c(n1)c(-c1cc[nH]n1)nn3CCN(C(=O)C1CC(F)(F)C1)C2 [Compound 53]
2. CC1c2cc(N3CCOC[C@H]3C)nc3c2c(nn3-c2cc[nH]n2)CCN1S(C)(=O)=O (single isomer, unassigned) [Compound 39B]

Outgoing:
7.00 to 8.00
> 8.00
